The reported measurements were obtained from patent US10092648B2.

# Target under test: T1, hGLP-2 receptor (human, UniProt O95838 1-553)
# T1 sequence (looked up): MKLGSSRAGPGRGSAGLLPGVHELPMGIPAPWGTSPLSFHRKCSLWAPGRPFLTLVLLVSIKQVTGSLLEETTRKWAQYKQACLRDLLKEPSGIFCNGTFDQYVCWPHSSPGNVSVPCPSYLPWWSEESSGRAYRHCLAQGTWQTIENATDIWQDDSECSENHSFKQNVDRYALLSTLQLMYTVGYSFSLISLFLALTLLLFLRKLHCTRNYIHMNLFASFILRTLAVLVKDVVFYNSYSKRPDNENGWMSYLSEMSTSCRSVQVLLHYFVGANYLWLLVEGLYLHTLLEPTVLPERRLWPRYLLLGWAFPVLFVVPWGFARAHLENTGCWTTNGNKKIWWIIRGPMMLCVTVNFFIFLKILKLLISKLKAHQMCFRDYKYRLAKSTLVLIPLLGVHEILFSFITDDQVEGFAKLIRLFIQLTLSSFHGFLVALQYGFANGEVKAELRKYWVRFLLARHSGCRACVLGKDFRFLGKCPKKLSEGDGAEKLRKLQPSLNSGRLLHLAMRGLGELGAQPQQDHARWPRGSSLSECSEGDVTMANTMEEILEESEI
# Assay name: cell-based or functional assay
Readout kind: pEC50 (CRE-luciferase reporter, BHK-21 cells transiently transfected with hGLP-2 receptor)

- H-HGEGSFSDELKTILESLAAADFIEWLIQTKITD-NH2 [ZP2269]: 10
- H-HGEGSFSDELATILESLAAADFISWLIATKITD-NH2 [ZP2272]: 11.3
- H-HGEGSFSDELATILEALAAADFIAWLIATKITD-NH2 [ZP2264]: 11.5
- H-HGEGSFSDELNTILESLAASDFISWLISTKITD-NH2 [ZP2270]: 10.2
- H-HGEGSFSDELSTILESLAASDFISWLISTKITD-NH2 [ZP2263]: 10.8
